// merged dataset of pIC50 values, system = Tyrosine-protein phosphatase non-receptor type 1 (Homo sapiens, UniProt P18031), multiple refs
Sequence (P18031 whole entry): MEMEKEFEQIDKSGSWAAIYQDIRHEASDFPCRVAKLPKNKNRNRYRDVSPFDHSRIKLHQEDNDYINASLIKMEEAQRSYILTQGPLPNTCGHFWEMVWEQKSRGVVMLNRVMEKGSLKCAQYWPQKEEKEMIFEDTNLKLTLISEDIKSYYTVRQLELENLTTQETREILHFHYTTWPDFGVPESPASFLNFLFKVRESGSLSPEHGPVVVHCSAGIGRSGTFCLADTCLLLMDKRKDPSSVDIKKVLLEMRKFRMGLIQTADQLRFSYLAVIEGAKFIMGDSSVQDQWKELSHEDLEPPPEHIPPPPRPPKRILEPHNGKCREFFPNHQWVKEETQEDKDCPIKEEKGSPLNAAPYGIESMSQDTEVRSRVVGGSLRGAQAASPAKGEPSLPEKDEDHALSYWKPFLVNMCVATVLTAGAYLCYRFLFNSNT
pIC50: −log10 of the molar value.
Property name: pIC50

>>> quantitative_readout("CCOS(=O)(=O)/C=C/c1ccc(O[C@@H]2CNC[C@H]2Oc2ccc(/C=C/S(=O)(=O)OCC)cc2)cc1")
4.77
>>> quantitative_readout("CCOC(=O)/C(C)=C\\C(C)=C\\c1csc([C@H](Cc2ccc(OCc3ccccc3)cc2)NC(=O)C2CCCCC2)n1")
5.03
>>> quantitative_readout("O=C(O)COc1c(O)cc(-c2cc(C(F)(F)F)cc(C(F)(F)F)c2)cc1OCc1cccc(C(F)(F)F)c1")
5.70
>>> quantitative_readout("O=C(c1ccc(O)cc1)N(Cc1ccc(-c2csnn2)cc1)Cc1ccc(C(F)(F)P(=O)(O)O)cc1")
5.16
>>> quantitative_readout("O=C(/C=C/c1ccccc1Cl)NC(Cc1ccc2cc(OCc3ccccc3F)ccc2c1)C(=O)O (racemic)")
5.90
>>> quantitative_readout("O=C(O)c1cc(Cc2cc(C(=O)O)c(O)c(-c3ccco3)c2)cc(-c2ccco2)c1O")
4.41
>>> quantitative_readout("O=C(O)[C@@H](Cc1ccccc1)N1C(=O)/C(=C/c2cn(-c3ccccc3)nc2-c2ccc(Br)cc2)SC1=S")
5.35
>>> quantitative_readout("CCOCC1(CN2CCCC2)COc2ccc3c(C)cc(=O)oc3c2C1=O (stereo unspecified)")
4.08
>>> quantitative_readout("COc1ccc(-c2nn(-c3ccccc3)cc2/C=C2\\SC(=S)N([C@H](Cc3ccccc3)C(=O)O)C2=O)cc1")
5.15
>>> quantitative_readout("O=C(O)[C@@H](Cc1ccccc1)N1C(=O)/C(=C/c2cn(-c3ccccc3)nc2-c2cccc(Br)c2)SC1=S")
5.56
